The measurements presented in this section are drawn from patent US20240270821A1.

# Measurement target: human glucagon receptor (human) (UniProt P47871)
# Sequence (P47871 26-477): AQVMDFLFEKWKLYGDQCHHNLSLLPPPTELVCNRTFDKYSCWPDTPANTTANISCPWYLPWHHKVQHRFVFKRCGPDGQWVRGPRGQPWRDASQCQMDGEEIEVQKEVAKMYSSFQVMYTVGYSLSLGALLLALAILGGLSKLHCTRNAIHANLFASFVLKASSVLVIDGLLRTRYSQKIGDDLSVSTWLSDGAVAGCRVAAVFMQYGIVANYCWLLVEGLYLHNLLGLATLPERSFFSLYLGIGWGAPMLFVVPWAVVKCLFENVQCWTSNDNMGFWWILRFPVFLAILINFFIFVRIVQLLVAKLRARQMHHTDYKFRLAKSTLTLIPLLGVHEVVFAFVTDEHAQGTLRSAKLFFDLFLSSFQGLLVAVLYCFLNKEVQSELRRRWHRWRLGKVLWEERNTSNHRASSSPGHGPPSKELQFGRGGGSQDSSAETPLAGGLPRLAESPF
# Method summary: cell-based or functional assay
Attribute measured: Relative cAMP EC50 (nM)
Output spec: scalar in nM, unitless text.

1. YXQGTXTSDXSIXLDXKAQXAFIEYLEEGGPSSGAPPPS (synthetic construct; SITE 2: note = 2-Aminoisobutyric Acid; SITE 6: note = alpha-methyl-2-fluoro-L-phenylalanine; SITE 10: note = 3-(4-Pyridyl)-L-alanine; SITE 13: note = alpha-methyl-leucine; SITE 16: note = L-ornithine; SITE 17: note = Lysine is chemically modified through conjugation of the epsil) [Example 441]	8

Ask | Return the recorded Relative cAMP EC50 value; entry: YXQGTFTSDXSQXLDKKAQXAFIEYLIEXGESSGAPPPSGS (non-natural residues, lipidated Lys, C-terminal amide; synthetic construct; SITE 2: note = 2-Aminoisobutyric Acid; SITE 10: note = 3-(4-Pyridyl)-L-alanine; SITE 13: note = alpha-methyl-leucine; SITE 17: note = Lysine is chemically modified through conjugation of the epsilon-amino group of the Lysine side chain with (2-[2-(2-Amino-ethoxy)-ethoxy]-acetyl)) [Example 226]
Reply | 3.08

Ask | Output Relative cAMP EC50 of YXQGTXTSDXXIXLDXKAQXEFIEXLVEGGPSSGEPPPSGSE (non-natural residues; lipidated Lys; C-terminal amide; synthetic construct; SITE 2: note = 2-Aminoisobutyric Acid; SITE 6: note = alpha-methyl-2-fluoro-L-phenylalanine; SITE 10: note = 3-(4-Pyridyl)-L-alanine; SITE 11: note = alpha-methyl-L-serine; SITE 13: note = alpha-methyl-leucine; SITE 16: note = L-ornithine; SITE 17: note = Lysine is chemically mo) [Example 1163]
Reply | 1.75
